Every entry's value here was drawn from the kinase profiling compilation of Christmann-Franck et al. (2016).

Measured residual activity by item
target: TAOK1 (human) (UniProt Q7L7X3); assay: radiometric filter-binding kinase assay, Kinase HotSpot; settings: compound 0.5 µM; ATP 10 µM
Sequence (Q7L7X3 whole entry, looked up): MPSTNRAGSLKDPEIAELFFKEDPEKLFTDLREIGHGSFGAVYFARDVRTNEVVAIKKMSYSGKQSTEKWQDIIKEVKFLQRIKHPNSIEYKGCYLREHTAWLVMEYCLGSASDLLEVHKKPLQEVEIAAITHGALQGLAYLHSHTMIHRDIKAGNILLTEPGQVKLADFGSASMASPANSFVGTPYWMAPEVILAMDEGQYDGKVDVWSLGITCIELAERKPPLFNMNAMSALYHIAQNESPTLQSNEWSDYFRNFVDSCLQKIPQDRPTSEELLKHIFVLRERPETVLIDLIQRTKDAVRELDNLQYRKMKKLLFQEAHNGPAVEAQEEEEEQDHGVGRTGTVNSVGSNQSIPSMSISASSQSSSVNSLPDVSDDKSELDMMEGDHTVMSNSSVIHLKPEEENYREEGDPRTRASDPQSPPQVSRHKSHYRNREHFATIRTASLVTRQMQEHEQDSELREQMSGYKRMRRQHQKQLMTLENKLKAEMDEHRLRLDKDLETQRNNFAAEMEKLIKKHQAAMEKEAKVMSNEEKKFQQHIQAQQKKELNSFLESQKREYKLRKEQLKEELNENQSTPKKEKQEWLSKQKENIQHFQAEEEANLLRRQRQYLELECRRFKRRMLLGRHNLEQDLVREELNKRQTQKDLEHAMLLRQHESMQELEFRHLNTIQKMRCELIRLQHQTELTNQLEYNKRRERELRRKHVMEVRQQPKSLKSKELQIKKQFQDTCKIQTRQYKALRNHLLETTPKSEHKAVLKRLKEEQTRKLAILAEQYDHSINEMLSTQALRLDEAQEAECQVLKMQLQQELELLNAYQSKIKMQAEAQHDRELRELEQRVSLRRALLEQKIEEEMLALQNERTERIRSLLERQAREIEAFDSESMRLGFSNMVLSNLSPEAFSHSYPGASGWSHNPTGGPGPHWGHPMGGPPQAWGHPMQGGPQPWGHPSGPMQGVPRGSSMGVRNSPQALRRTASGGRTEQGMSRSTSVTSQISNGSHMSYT
MEASUREMENT_NAME: residual activity (%)

N#C/C(=C(/N)Sc1ccc(N)cc1)c1ccccc1C(F)(F)F
98.3
COc1cc2ncnc(Nc3cccc(Cl)c3)c2cc1OC
108
Cc1[nH]c(/C=C2\C(=O)Nc3ccc(S(=O)(=O)N(C)c4cccc(Cl)c4)cc32)c(C)c1C(=O)N1CCN(C)CC1
41.9
Nc1ncnc2c1c(-c1ccc(Oc3ccccc3)cc1)cn2C1CCCC1
84.6
CCN(CC)CCNC(=O)c1c(C)[nH]c(/C=C2\C(=O)Nc3ccc(F)cc32)c1C
71.5
CC(=O)c1ccc(N2CCOCC2)cc1O
99.4
COc1ccc(COc2ccc(Cc3cnc(N)nc3N)cc2OC)cc1
110
CNc1cc2c(Nc3cccc(Br)c3)ncnc2cn1
92.4
CO[C@H]1CC2CC[C@@H](C)[C@@](O)(O2)C(=O)C(=O)N2CCCC[C@H]2C(=O)OC([C@H](C)C[C@@H]2CC[C@@H](O)[C@H](OC)C2)CC(=O)[C@H](C)/C=C(\C)[C@@H](O)[C@@H](OC)C(=O)[C@H](C)C[C@H](C)/C=C/C=C/C=C/1C (stereo partly specified)
102
CC(C)N(CCC(=O)c1ccc2ccccc2c1)Cc1ccccc1
94.9
c1ccc(-c2n[nH]cc2-c2ccnc3ccccc23)nc1
93
c1ccc(-c2n[nH]c3c2oc2ccccc23)cc1
121
O=C1NC(=O)/C(=C/c2ccc3c(c2)OC(F)(F)O3)S1
90
CC[n+]1c(/C=C/N(C)c2ccccc2)n(-c2ccccc2)c2ccc(-c3nc4ccccc4s3)cc21
99.4
Cc1ccc(S(=O)(=O)/C=C/C#N)cc1
96.5
Nc1ccc2ncnc(NCCc3ccc(Oc4ccccc4)cc3)c2c1
84.2
O=C(Nc1cccc(Nc2nccc(Nc3cccc(C(F)(F)F)c3)n2)c1)C1CC1
97.9
CCOC(=O)c1c(C)[nH]c(/C=C2\C(=O)Nc3ccccc32)c1C
100
O=C1Nc2ccc(Cl)cc2/C1=C/c1cc(Cl)c(O)c(Cl)c1
71.6
CC#CC(=O)Nc1cc2c(Nc3ccc(F)c(Cl)c3)ncnc2cn1
104
O=C1NC(=O)c2c1c1c3ccccc3n3c1c1c2c2ccccc2n1C1CCC3O1
66.9
CCN(CC)C(=O)c1ccc(Nc2nc(OCC3CCCCC3)c3nc[nH]c3n2)cc1
57.9
CCCC(=O)Oc1ccc2[nH]c(C(=O)c3cc4ccccc4[nH]3)cc2c1
82.8
Cc1ccc(NC2=CC(=O)c3sc(C)nc3C2=O)cc1
99.8
COc1ccc2c(c[n+](C)c3c4cc5c(cc4ccc23)OCO5)c1OC
105
O=C1NC(=O)C(c2cn(CCCn3ccnc3)c3ccccc23)=C1Nc1ccccc1
101
Nc1cccc(-c2cc3c(Oc4cccc(O)c4)ncnc3[nH]2)c1
142
CCC(=O)Nc1ccc2ncnc(Nc3cccc(Br)c3)c2c1
79.1
N#CC(C#N)=C(N)/C(C#N)=C/c1ccc(O)cc1
93.2
Oc1cccc(-c2nc(N3CCOCC3)c3oc4ncccc4c3n2)c1
91.6
Cc1ccc(Nc2nccc(N(C)c3ccc4c(C)n(C)nc4c3)n2)cc1S(N)(=O)=O
28.9
O=c1cc(N2CCOCC2)oc2c1ccc1ccccc12
97.5
O=S(=O)(c1cccc2cnccc12)N1CCCNCC1
123
Nc1ncnc2[nH]nc(Nc3ccc(F)cc3)c12
92
CNC(=O)c1cc(Oc2ccc(NC(=O)Nc3ccc(Cl)c(C(F)(F)F)c3)cc2)ccn1
82
CCN(CC)CCNC(=O)c1c(C)[nH]c(/C=C2\C(=O)Nc3ccc(Cl)cc32)c1C
65.8
